Here the recorded 5-HT2CR Rmax ± S.E.M. is given for each entry.
molecular target: human 5-HT2CR (Homo sapiens); experiment: Ca2+/Fluo-4 assay, agonist mode, stable 5-HT2CR-HEK293 cells; conditions: Table S2; % of the 5-HT Rmax on the same 96-well plate
Sequence (P28335 33-458): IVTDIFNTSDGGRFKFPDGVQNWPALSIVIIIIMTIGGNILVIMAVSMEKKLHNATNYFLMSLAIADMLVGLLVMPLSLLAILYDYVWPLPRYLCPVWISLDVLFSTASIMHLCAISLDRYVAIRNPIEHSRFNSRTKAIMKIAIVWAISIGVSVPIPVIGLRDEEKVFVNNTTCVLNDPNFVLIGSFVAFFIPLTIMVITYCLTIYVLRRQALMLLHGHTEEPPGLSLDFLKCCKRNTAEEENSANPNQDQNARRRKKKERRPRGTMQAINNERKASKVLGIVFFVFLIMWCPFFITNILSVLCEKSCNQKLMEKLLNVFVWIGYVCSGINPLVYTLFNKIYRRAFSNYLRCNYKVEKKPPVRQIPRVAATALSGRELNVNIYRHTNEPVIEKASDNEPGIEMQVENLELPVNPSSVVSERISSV

{"compound": "COc1cc(C2CNC2)c(OC)cc1Br [Compound 4]", "measured_target": "human 5-HT2CR (Homo sapiens)", "5-HT2CR Rmax ± S.E.M. [%]": 90}
{"compound": "Br.COc1cc(C2CCNC2)c(OC)cc1Br (centres unmarked) [Compound 5dis]", "measured_target": "human 5-HT2CR (Homo sapiens)", "5-HT2CR Rmax ± S.E.M. [%]": 16}
{"compound": "COc1cc(C(F)(F)F)c(OC)cc1CCN [Compound 18, reference compound]", "measured_target": "human 5-HT2CR (Homo sapiens)", "5-HT2CR Rmax ± S.E.M. [%]": 71}
{"compound": "Br.COc1cc(C2CCNC2)c(OC)cc1Br (centres unmarked) [Compound 5eu]", "measured_target": "human 5-HT2CR (Homo sapiens)", "5-HT2CR Rmax ± S.E.M. [%]": 73}
{"compound": "COc1cc(C2CCCNC2)ccc1C(F)(F)F.Cl (centres unmarked) [Compound 23dis]", "measured_target": "human 5-HT2CR (Homo sapiens)", "5-HT2CR Rmax ± S.E.M. [%]": 35}

###

biological target: human 5-HT2AR (Homo sapiens, UniProt P28223); assay: Ca2+/Fluo-4 assay, agonist mode, stable 5-HT2AR-HEK293 cells; details: Table 2; % of the 5-HT Rmax
Sequence (P28223 whole entry): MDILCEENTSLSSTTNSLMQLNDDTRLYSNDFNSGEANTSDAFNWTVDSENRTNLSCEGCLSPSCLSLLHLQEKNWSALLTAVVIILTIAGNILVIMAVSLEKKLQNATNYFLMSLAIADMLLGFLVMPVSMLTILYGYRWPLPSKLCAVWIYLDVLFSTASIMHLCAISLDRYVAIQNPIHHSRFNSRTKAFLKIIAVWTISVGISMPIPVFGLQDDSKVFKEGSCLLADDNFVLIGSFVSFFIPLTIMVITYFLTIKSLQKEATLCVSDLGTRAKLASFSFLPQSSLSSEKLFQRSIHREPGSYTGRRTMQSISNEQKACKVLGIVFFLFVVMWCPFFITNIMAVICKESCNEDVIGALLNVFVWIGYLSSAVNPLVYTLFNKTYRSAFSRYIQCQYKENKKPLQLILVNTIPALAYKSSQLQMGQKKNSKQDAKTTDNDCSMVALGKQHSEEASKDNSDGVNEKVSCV

{"compound": "COc1cc(C2CCCNC2)ccc1C(F)(F)F.Cl (stereo not shown) [Compound 23dis]", "readout_unit": "%", "5-HT2AR Rmax (%)": 65}
{"compound": "CCOc1cc(C2CCCNC2)c(OC)cc1C(F)(F)F.Cl (stereo not shown) [Compound 25dis]", "readout_unit": "%", "5-HT2AR Rmax (%)": 86}
{"compound": "CCOc1cc(C2CCCNC2)c(OC)cc1C(F)(F)F.Cl (stereo not shown) [Compound 25eu]", "readout_unit": "%", "5-HT2AR Rmax (%)": 95}
{"compound": "COc1cc(C2CCCNC2)ccc1C(F)(F)F.Cl (stereo not shown) [Compound 23eu]", "readout_unit": "%", "5-HT2AR Rmax (%)": 68}

###

biological target: UniProtKB P25021
Sequence (P25021 whole entry): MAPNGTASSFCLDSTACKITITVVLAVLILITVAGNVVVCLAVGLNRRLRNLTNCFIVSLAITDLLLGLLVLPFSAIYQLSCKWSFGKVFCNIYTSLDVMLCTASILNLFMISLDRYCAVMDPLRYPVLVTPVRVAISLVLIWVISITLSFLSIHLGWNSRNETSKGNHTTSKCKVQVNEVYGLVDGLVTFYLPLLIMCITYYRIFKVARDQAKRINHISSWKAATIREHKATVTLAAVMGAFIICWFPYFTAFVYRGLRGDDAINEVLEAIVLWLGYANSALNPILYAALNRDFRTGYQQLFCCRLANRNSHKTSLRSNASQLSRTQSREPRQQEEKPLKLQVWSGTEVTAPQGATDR
measurement_label: IC50

{"compound": "COc1cc(C(F)(F)F)c(OC)cc1[C@@H]1CCCNC1 [(S)-11]", "measured_target": "UniProtKB P25021", "reported_value": "> 10 µM"}

###

molecular target: hERG K+ channel (Homo sapiens, UniProt Q12809); construct: Eurofins; experiment: radioligand competition binding, [3H]Astemizole; conditions: human, probe [3H]Astemizole; read-out: % inhibition of the specific radioligand binding
Sequence (Q12809 whole entry): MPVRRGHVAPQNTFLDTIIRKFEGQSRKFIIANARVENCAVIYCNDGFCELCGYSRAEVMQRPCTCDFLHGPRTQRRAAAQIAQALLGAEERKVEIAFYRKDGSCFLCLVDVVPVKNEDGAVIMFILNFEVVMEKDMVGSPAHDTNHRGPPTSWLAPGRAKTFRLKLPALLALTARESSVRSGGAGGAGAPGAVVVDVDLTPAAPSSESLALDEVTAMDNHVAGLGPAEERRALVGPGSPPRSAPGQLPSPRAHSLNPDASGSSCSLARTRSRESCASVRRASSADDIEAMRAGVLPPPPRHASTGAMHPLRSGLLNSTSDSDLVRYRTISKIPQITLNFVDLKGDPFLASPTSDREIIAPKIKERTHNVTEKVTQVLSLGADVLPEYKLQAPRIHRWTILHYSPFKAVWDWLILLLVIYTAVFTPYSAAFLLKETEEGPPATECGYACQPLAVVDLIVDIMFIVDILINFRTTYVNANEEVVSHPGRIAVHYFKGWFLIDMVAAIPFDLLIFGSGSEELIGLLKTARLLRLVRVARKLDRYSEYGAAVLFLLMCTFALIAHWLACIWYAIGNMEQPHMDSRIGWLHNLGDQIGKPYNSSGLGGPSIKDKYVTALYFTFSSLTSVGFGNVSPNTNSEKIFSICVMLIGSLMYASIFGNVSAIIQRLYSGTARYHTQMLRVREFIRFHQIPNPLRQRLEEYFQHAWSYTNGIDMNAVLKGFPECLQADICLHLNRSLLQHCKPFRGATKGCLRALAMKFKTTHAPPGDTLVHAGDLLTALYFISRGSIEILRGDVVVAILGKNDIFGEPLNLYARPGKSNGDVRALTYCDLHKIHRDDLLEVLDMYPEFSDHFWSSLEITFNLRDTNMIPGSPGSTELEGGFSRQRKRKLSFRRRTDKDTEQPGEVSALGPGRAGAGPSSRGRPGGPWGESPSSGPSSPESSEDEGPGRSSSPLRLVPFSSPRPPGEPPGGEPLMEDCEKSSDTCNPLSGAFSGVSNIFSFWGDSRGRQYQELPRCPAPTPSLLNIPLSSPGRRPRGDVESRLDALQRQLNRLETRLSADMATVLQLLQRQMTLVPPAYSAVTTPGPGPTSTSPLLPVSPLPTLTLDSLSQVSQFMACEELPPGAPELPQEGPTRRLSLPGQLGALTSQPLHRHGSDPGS

{"molecule": "COc1cc(C(F)(F)F)c(OC)cc1[C@@H]1CCCNC1 [(S)-11]", "measured_target": "hERG K+ channel (Homo sapiens, UniProt Q12809)", "readout_unit": "%", "inhibition at 10 µM": 32}

###

molecular target: UniProtKB P10275
Sequence (P10275 whole entry): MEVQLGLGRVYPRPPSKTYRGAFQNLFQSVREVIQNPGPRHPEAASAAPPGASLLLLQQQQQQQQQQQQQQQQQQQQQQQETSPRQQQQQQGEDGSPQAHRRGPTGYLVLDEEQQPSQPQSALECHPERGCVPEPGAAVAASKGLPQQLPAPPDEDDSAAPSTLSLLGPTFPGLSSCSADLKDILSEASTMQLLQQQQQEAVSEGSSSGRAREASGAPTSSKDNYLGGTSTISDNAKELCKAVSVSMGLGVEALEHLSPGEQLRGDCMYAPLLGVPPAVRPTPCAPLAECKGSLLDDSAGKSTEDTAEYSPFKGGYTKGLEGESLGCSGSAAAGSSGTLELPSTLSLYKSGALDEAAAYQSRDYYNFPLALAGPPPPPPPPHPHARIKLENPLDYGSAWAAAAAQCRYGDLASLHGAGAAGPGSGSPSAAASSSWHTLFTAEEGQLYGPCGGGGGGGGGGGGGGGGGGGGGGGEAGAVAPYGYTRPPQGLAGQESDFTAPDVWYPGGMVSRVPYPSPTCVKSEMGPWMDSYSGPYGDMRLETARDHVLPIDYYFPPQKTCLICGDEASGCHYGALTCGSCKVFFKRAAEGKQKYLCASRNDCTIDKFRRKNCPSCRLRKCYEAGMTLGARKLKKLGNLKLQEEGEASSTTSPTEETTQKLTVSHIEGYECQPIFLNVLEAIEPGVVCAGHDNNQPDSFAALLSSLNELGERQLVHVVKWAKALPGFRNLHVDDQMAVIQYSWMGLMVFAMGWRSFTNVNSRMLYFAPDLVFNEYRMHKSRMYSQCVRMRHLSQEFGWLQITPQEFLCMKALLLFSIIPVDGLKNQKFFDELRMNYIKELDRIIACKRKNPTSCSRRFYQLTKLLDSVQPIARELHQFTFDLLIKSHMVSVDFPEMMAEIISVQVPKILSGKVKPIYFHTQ
pIC50: −log10 of the molar value.
measurement_label: pIC50

{"molecule": "COc1cc(C(F)(F)F)c(OC)cc1[C@@H]1CCCNC1 [(S)-11]", "reported_value": "< 5.00"}

###

biological target: human 5-HT2AR (Homo sapiens, UniProt P28223); experiment: Ca2+/Fluo-4 assay, agonist mode, stable 5-HT2AR-HEK293 cells; settings: Table S2; % of the 5-HT Rmax on the same 96-well plate
We begin with a simple list: items and their reported 5-HT2AR Rmax ± S.E.M..
measurement_label: 5-HT2AR Rmax ± S.E.M. (%)

{"compound": "COc1cc(C(F)(F)F)c(OC)cc1[C@H]1CCCN(C)C1 [(R)-19]", "reported_value": 53}
{"compound": "CCOc1cc(C(F)(F)F)c(OCC)cc1C1CCCNC1.Cl (stereo not drawn) [Compound 26eu]", "reported_value": 47}
{"compound": "COc1cc(C(F)(F)F)c(OC)cc1[C@@H]1CCCN(C)C1 [(S)-19]", "reported_value": 19}
{"compound": "COc1cc(C2CNC2)c(OC)cc1Br", "reported_value": 97}
{"compound": "NCCc1c[nH]c2ccc(O)cc12 [Compound 5-HT, 5-hydroxytryptamine, reference compound]", "reported_value": 100}
{"compound": "CCOc1cc(C(F)(F)F)c(OC)cc1C1CCCNC1.Cl (stereo not drawn) [Compound 24eu]", "reported_value": 40}
{"compound": "Br.COc1cc(C2CCNC2)c(OC)cc1Br (stereo not drawn) [Compound 5eu]", "reported_value": 57}
{"compound": "COc1cc(C(F)(F)F)c(OC)cc1CCN [Compound 18, reference compound]", "reported_value": 67}
{"compound": "CCOc1cc(C(F)(F)F)c(OC)cc1C1CCCNC1.Cl (stereo not drawn) [Compound 24dis]", "reported_value": 77}
{"compound": "CCOc1cc(C2CCCNC2)c(OC)cc1C(F)(F)F.Cl (stereo not drawn) [Compound 25eu]", "reported_value": 95}
{"compound": "COc1cc(C2CCCNC2)ccc1C(F)(F)F.Cl (stereo not drawn) [Compound 23eu]", "reported_value": 68}
{"compound": "COc1cc(C2CCCNC2)ccc1C(F)(F)F.Cl (stereo not drawn) [Compound 23dis]", "reported_value": 65}
{"compound": "COc1cc(C(F)(F)F)ccc1C1CCCNC1.Cl (stereo not drawn) [Compound 22dis]", "reported_value": 80}
{"compound": "CCN1CCC[C@@H](c2cc(OC)c(C(F)(F)F)cc2OC)C1 [(S)-20]", "reported_value": 44}
{"compound": "Br.COc1cc(C2CCNC2)c(OC)cc1Br (stereo not drawn) [Compound 5dis]", "reported_value": 39}
{"compound": "COc1cc(C(F)(F)F)ccc1C1CCCNC1.Cl (stereo not drawn) [Compound 22eu]", "reported_value": 68}
{"compound": "CCOc1cc(C(F)(F)F)c(OCC)cc1C1CCCNC1.Cl (stereo not drawn) [Compound 26dis]", "reported_value": 69}
{"compound": "CCOc1cc(C2CCCNC2)c(OC)cc1C(F)(F)F.Cl (stereo not drawn) [Compound 25dis]", "reported_value": 86}

###

Target: M5 (muscarinic receptor) (Homo sapiens, UniProt P08912)
Sequence (P08912 1-532): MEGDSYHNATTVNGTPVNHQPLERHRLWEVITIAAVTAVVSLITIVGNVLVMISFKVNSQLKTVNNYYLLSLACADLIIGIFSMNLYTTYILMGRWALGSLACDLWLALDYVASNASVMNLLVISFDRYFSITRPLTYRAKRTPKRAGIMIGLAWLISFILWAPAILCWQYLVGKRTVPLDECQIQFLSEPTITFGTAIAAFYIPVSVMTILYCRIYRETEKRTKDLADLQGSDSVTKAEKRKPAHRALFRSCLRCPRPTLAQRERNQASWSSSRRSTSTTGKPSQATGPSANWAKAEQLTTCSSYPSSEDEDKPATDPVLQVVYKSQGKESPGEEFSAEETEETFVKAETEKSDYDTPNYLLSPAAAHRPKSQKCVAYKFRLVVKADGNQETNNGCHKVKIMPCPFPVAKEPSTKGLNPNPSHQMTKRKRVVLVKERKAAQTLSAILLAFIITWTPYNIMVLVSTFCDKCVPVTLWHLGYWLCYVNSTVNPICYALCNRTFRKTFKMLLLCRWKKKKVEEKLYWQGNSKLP
pIC50: −log10 of the molar value.
measurement_label: pIC50

{"compound": "COc1cc(C(F)(F)F)c(OC)cc1[C@@H]1CCCNC1 [(S)-11]", "reported_value": "~6.00"}

###

biological target: M2 (muscarinic receptor) (Homo sapiens, UniProt P08172)
Sequence (P08172 whole entry): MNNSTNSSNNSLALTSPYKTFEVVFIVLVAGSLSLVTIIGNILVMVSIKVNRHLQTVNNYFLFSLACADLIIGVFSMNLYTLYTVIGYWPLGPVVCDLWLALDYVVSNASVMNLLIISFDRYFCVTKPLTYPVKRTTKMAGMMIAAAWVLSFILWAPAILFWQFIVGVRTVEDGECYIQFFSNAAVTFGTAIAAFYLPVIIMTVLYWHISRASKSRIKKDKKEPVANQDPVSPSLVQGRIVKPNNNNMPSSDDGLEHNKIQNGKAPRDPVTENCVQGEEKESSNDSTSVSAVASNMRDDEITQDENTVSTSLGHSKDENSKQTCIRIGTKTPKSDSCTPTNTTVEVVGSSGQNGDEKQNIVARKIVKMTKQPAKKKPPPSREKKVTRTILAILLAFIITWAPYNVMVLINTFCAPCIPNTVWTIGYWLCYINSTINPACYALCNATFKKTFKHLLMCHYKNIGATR

{"compound": "COc1cc(C(F)(F)F)c(OC)cc1[C@@H]1CCCNC1 [(S)-11]", "measured_target": "M2 (muscarinic receptor) (Homo sapiens, UniProt P08172)", "IC50": "~10 µM"}

###

target: DAT (Homo sapiens, UniProt Q01959)
Sequence (Q01959 whole entry): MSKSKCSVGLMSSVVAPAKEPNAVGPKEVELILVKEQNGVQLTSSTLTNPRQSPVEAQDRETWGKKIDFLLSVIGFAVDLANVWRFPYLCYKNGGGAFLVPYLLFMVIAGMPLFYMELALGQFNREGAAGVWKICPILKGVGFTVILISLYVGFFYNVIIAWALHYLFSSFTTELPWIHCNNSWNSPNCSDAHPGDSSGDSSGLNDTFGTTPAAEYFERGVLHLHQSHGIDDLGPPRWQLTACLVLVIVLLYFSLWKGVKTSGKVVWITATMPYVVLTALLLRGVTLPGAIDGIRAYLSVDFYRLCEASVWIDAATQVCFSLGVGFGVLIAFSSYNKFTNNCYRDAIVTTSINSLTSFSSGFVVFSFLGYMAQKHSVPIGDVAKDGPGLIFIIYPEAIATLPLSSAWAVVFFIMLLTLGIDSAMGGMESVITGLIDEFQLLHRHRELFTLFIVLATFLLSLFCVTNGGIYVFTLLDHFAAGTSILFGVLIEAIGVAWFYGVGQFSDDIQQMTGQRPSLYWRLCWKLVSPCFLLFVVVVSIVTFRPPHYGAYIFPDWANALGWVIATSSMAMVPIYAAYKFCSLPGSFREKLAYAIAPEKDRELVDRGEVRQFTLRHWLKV
measurement_label: IC50

{"compound": "COc1cc(C(F)(F)F)c(OC)cc1[C@@H]1CCCNC1 [(S)-11]", "reported_value": "> 10 µM"}

###

Each entry below carries its recorded EC50.
target: human 5-HT2AR (Homo sapiens); experiment: Ca2+/Fluo-4 assay, agonist mode, stable 5-HT2AR-HEK293 cells; conditions: read-out: 5-HT2AR EC50; Table 1; at least 3 independent experiments

{"compound": "CCCCc1cc(OC)c(C2CCCNC2)cc1OC.Cl (stereo not drawn) [Compound 14eu]", "measured_target": "human 5-HT2AR (Homo sapiens)", "EC50": "270 nM"}
{"compound": "COc1cc(C2CCCNC2)c(OC)cc1Cl (stereo not drawn) [Compound 8eu]", "measured_target": "human 5-HT2AR (Homo sapiens)", "EC50": "66 nM"}
{"compound": "COc1cc(C2CCCNC2)c(OC)cc1Cl (stereo not drawn) [Compound 8dis]", "measured_target": "human 5-HT2AR (Homo sapiens)", "EC50": "690 nM"}
{"compound": "COc1cc(C2CCCNC2)c(OC)cc1SC(C)C (stereo not drawn) [Compound 17eu]", "measured_target": "human 5-HT2AR (Homo sapiens)", "EC50": "160 nM"}
{"compound": "COc1cc(C2CCCNC2)c(OC)cc1I (stereo not drawn) [Compound 9dis, 3-(4-Iodo-2,5-dimethoxyphenyl)piperidine]", "measured_target": "human 5-HT2AR (Homo sapiens)", "EC50": "260 nM"}
{"compound": "CCc1cc(OC)c(C2CCCNC2)cc1OC.Cl (stereo not drawn) [Compound 13dis]", "measured_target": "human 5-HT2AR (Homo sapiens)", "EC50": "110 nM"}
{"compound": "COc1cc(C2CCCNC2)c(OC)cc1C.Cl (stereo not drawn) [Compound 12eu]", "measured_target": "human 5-HT2AR (Homo sapiens)", "EC50": "100 nM"}
{"compound": "COc1cc(C2CCCNC2)c(OC)cc1SC.Cl (stereo not drawn) [Compound 15eu]", "measured_target": "human 5-HT2AR (Homo sapiens)", "EC50": "26 nM"}
{"compound": "COc1cc(C2CCCNC2)c(OC)cc1SC.Cl (stereo not drawn) [Compound 15dis]", "measured_target": "human 5-HT2AR (Homo sapiens)", "EC50": "180 nM"}
{"compound": "Br.COc1cc(C2CCNC2)c(OC)cc1Br (stereo not drawn) [Compound 5eu]", "measured_target": "human 5-HT2AR (Homo sapiens)", "EC50": "5.3 nM"}
{"compound": "COc1cc(C2CCCNC2)c(OC)cc1C.Cl (stereo not drawn) [Compound 12dis]", "measured_target": "human 5-HT2AR (Homo sapiens)", "EC50": "260 nM"}
{"compound": "COc1cc(C2CCCNC2)c(OC)cc1I (stereo not drawn) [Compound 9eu, 3-(4-Iodo-2,5-dimethoxyphenyl)piperidine]", "measured_target": "human 5-HT2AR (Homo sapiens)", "EC50": "37 nM"}
{"compound": "CCCCc1cc(OC)c(C2CCCNC2)cc1OC.Cl (stereo not drawn) [Compound 14dis]", "measured_target": "human 5-HT2AR (Homo sapiens)", "EC50": "340 nM"}
{"compound": "COc1cc(C2CNC2)c(OC)cc1Br", "measured_target": "human 5-HT2AR (Homo sapiens)", "EC50": "1.6 nM"}
{"compound": "CCc1cc(OC)c(C2CCCNC2)cc1OC.Cl (stereo not drawn) [Compound 13eu]", "measured_target": "human 5-HT2AR (Homo sapiens)", "EC50": "41 nM"}
{"compound": "COc1cc(C2CCCNC2)c(OC)cc1C#N (stereo not drawn) [Compound 10dis]", "measured_target": "human 5-HT2AR (Homo sapiens)", "EC50": "2200 nM"}
{"compound": "COc1cc(C2CCCNC2)c(OC)cc1C#N (stereo not drawn) [Compound 10eu]", "measured_target": "human 5-HT2AR (Homo sapiens)", "EC50": "270 nM"}
{"compound": "COc1cc(C2CCCNC2)c(OC)cc1SC(C)C (stereo not drawn) [Compound 17dis]", "measured_target": "human 5-HT2AR (Homo sapiens)", "EC50": "290 nM"}
{"compound": "CCSc1cc(OC)c(C2CCCNC2)cc1OC.Cl (stereo not drawn) [Compound 16dis]", "measured_target": "human 5-HT2AR (Homo sapiens)", "EC50": "190 nM"}
{"compound": "CCSc1cc(OC)c(C2CCCNC2)cc1OC.Cl (stereo not drawn) [Compound 16eu]", "measured_target": "human 5-HT2AR (Homo sapiens)", "EC50": "38 nM"}
{"compound": "Br.COc1cc(C2CCNC2)c(OC)cc1Br (stereo not drawn) [Compound 5dis]", "measured_target": "human 5-HT2AR (Homo sapiens)", "EC50": "7.7 nM"}
